Molecular target: Mu-type opioid receptor (Rattus norvegicus, UniProt P33535)
Sequence (P33535 whole entry): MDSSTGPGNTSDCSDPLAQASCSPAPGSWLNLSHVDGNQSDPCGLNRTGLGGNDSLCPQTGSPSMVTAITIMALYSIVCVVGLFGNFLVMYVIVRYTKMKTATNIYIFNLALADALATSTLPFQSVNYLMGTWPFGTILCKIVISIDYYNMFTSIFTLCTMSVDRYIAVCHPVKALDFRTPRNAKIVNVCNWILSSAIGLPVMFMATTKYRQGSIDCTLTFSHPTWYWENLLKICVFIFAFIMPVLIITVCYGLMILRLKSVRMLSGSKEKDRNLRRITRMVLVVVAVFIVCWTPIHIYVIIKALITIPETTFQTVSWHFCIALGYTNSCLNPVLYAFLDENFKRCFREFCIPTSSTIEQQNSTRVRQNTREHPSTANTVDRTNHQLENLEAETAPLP
Kd strictly less than 0.2 µM = y. Otherwise n.

Qu. Criterion: Kd strictly below 0.2 µM. Is it met by `CCOC(=O)[C@]1(c2cccc(O)c2)CCCN(CC2CC2)[C@H]1C` ?
Ans. y

Qu. Problem: For the compound `CCOC(=O)[C@]1(c2cccc(O)c2)CCCN(C)[C@H]1C` , is Kd under 0.2 µM?
Ans. y

Qu. Kd under 0.2 µM? Item: `C=CCN1CCC[C@](C(=O)OCC)(c2cccc(O)c2)[C@@H]1C`
Ans. n

Qu. For this compound, is Kd lower than 0.2 µM? `C=CCN1CCC[C@](C(=O)OCC)(c2cccc(O)c2)C1`
Ans. y

Qu. Does the reported Kd of `CCOC(=O)[C@]1(c2cccc(O)c2)CCCN(CC2CC2)C1` stay below 0.2 µM?
Ans. y

Qu. Kd strictly < 0.2 µM for this compound? `CCOC(=O)[C@]1(c2cccc(O)c2)CCCN(CCc2ccccc2)[C@H]1C`
Ans. n

Qu. Is it true that Kd reported for `CCOC(=O)[C@]1(c2cccc(O)c2)CCCN(C)C1` is less than 0.2 µM?
Ans. y

====

Please go through the items and note down their log10 Kd.
Target: Delta-type opioid receptor (Rattus norvegicus)
Sequence (P33533 whole entry): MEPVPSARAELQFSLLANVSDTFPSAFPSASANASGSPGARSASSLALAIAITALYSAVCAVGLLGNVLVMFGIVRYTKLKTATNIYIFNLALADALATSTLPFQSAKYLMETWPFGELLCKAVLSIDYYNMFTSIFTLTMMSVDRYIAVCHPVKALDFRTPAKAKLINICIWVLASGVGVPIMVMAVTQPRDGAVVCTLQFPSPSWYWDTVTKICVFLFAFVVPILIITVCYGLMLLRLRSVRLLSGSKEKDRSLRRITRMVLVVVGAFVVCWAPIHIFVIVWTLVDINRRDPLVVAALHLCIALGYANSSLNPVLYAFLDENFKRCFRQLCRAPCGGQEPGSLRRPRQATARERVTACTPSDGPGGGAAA
Test: Binding affinity at Opioid receptor delta 1 in rat brain membrane was determined by using curve -fitting LIGAND([3H]DHM, [3H]DADL, [3H]DSLET, [3H]EKC)
The base-10 logarithm of Kd, taken with Kd in nM, is what appears here.

GET /values?item= `CCOC(=O)[C@]1(c2cccc(O)c2)CCCN(C)[C@H]1C` &system= Delta-type opioid receptor (Rattus norvegicus) returns log10 Kd: 2.96

Query `CCOC(=O)[C@]1(c2cccc(O)c2)CCCN(C)C1` on Delta-type opioid receptor (Rattus norvegicus); log10 Kd returned: 3.60

Observed log10 Kd, Delta-type opioid receptor (Rattus norvegicus), `CCOC(=O)[C@]1(c2cccc(O)c2)CCCN(CCc2ccccc2)[C@H]1C` : 2.23

The observed log10 Kd for `CCOC(=O)[C@]1(c2cccc(O)c2)CCCN(CC2CC2)[C@H]1C` when tested with Delta-type opioid receptor (Rattus norvegicus) stands at 2.80

With Delta-type opioid receptor (Rattus norvegicus) as the test system, `CCOC(=O)[C@]1(c2cccc(O)c2)CCCN(CC2CC2)C1` showed log10 Kd of 2.41

Assay Delta-type opioid receptor (Rattus norvegicus), sample `C=CCN1CCC[C@](C(=O)OCC)(c2cccc(O)c2)[C@@H]1C` , log10 Kd read: 2.89

// log10 Kd (Delta-type opioid receptor (Rattus norvegicus)) for `C=CCN1CCC[C@](C(=O)OCC)(c2cccc(O)c2)C1` = 2.85

====

Molecular target: Kappa-type opioid receptor (Cavia porcellus, UniProt P41144)
Sequence (P41144 whole entry): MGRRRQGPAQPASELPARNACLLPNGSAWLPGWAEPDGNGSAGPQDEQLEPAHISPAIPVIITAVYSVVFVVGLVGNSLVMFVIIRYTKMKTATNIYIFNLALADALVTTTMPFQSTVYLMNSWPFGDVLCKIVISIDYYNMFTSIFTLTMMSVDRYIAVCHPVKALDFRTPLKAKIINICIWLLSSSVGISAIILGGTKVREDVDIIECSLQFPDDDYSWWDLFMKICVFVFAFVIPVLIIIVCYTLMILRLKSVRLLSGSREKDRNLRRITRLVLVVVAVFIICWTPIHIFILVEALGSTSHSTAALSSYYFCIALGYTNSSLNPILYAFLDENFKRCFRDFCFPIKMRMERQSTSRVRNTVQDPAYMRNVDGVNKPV
Assay: Binding affinity at Opioid receptor kappa 1 in guinea pig brain membrane determined by using [3H]U-69593 as radioligand
Type: cell membranes
Please go through the items and note down their pKd.
Please express pKd as -log10 of the molar concentration.

response.value for `CCOC(=O)[C@]1(c2cccc(O)c2)CCCN(CCc2ccccc2)[C@H]1C` (field: pKd) = 5.59

Notebook: `CCOC(=O)[C@]1(c2cccc(O)c2)CCCN(C)C1` , pKd read as 5.66

The value of pKd measured for the molecule `C=CCN1CCC[C@](C(=O)OCC)(c2cccc(O)c2)C1` turned out to be 6.35

Per the records, this molecule ( `CCOC(=O)[C@]1(c2cccc(O)c2)CCCN(C)[C@H]1C` ) has pKd equal to 5.72

Field pKd (entry `C=CCN1CCC[C@](C(=O)OCC)(c2cccc(O)c2)[C@@H]1C` ) reads 6.08

pKd for `CCOC(=O)[C@]1(c2cccc(O)c2)CCCN(CC2CC2)[C@H]1C` is 6.08

# pKd (molecule: `CCOC(=O)[C@]1(c2cccc(O)c2)CCCN(CC2CC2)C1` ) is 6.92
